Measured values drawn from paper PMC9645390 for this set.

# Experiment Description: Alamar Blue cytotoxicity assay in N2a cells
# Type: cell-based, mouse
# Measurement Context: mouse, N2a (Neuro2A) neuroblastoma cells, at 10 μM, 40 h, read-out: cell viability
# Description: After confirming these amphiphilic compounds can bind to Aβ species both in vitro and ex vivo, we next investigated whether these compounds could attenuate the toxicity of the Cu–Aβ species, as the Cu^2+ ions were reported to promote the formation of neurotoxic soluble Aβ42 oligomers.[45,46] Firstly, the Alamar Blue cell viability assay was used to measure the cytotoxicity of the compounds at different concentrations ranging from 20 μM to 2 μM in mouse neuroblastoma N2a cells (Fig. 8). […]
Readout Kind: viability at 40 h, 10 µM

Query: Would you mind telling me what viability at 40 h, 10 µM value was observed for COc1cc(-c2ccc(/C=C/c3ccc(N(C)C)cc3)s2)cc(CN2CCN(C)CCN(C)CC2)c1O ?
Reply: < 50%

* * *

# Target Or Test System: Aβ42 fibrils (Homo sapiens)
# Construct: 1 mg of commercial Aβ42 monomer powder (from GL biochem) was dissolved in 1; purchased GL biochem
# Experiment Description: Fluorescence saturation binding assay with Aβ42 fibrils
# Measurement Context: Aβ42 fibrils; 10 mM PBS pH 7.4; one site-specific binding model; read-out: Kd, Fibrils
Readout Kind: Kd (nM)
Quick reminder: number only, in nM, skip the unit.

Past entries and their recorded results:
Query: Requested read-out: Kd. Entry: COc1cc(OC)cc(-c2ccc(/C=C/c3cc(CN4CCN(C)CCN(C)CC4)c(O)c(OC)c3)cc2)c1 [ZY-17-OMe]
Reply: 180

Query: Let us now turn to CN1CCN(C)CCN(Cc2cc(/C=C/c3ccc(-c4ccc(N(C)C)cc4)s3)cc(CN3CCN(C)CCN(C)CC3)c2O)CC1 [ZY-5-DT]
Reply: 1670

Query: Request: COc1cc(-c2ccc(/C=C/c3ccc(N(C)C)cc3)s2)cc(CN2CCN(C)CCN(C)CC2)c1O [ZY-12-OMe]
Reply: 390

Okay, next one:
Query: Kd; subject: COc1cc(OC)cc(-c2ccc(/C=C/c3ccc(O)c(CN4CCN(C)CCN(C)CC4)c3)cc2)c1 [ZY-17-MT]
Reply: 940

* * *

# reported binding ratio, Fibrils; entries follow
# Target Or Test System: Aβ42 fibrils (Homo sapiens, UniProt P05067)
# Construct: 1 mg of commercial Aβ42 monomer powder (from GL biochem) was dissolved in 1; purchased GL biochem
# Sequence (P05067 672-713 limits assumed): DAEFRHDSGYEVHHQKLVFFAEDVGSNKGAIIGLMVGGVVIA
# Experiment Description: Fluorescence saturation binding assay with Aβ42 fibrils
# Measurement Context: Aβ42 fibrils; from cross point between plateau and initial slope

Some compounds with known binding ratio, Fibrils results, for comparison:
Query: May I ask what binding ratio, Fibrils has been recorded for COc1cc(/C=C/c2ccc(-c3ccc(N(C)C)cc3)s2)cc(CN2CCN(C)CCN(C)CC2)c1O ?
Reply: 5.6

Query: And COc1cc(OC)cc(-c2ccc(/C=C/c3ccc(O)c(CN4CCN(C)CCN(C)CC4)c3)cc2)c1 ?
Reply: 5.5

Query: Next up: COc1cc(OC)cc(-c2ccc(/C=C/c3cc(CN4CCN(C)CCN(C)CC4)c(O)c(CN4CCN(C)CCN(C)CC4)c3)cc2)c1
Reply: 1.1

Query: Can you handle CN1CCN(C)CCN(Cc2cc(-c3ccc(/C=C/c4ccc(N(C)C)cc4)s3)cc(CN3CCN(C)CCN(C)CC3)c2O)CC1 next?
Reply: 3.5

Query: Moving on to the next compound: CN1CCN(C)CCN(Cc2cc(/C=C/c3ccc(-c4ccc(N(C)C)cc4)s3)cc(CN3CCN(C)CCN(C)CC3)c2O)CC1
Reply: 1.6

Continuing:
Query: Param item = COc1cc(-c2ccc(/C=C/c3ccc(N(C)C)cc3)s2)cc(CN2CCN(C)CCN(C)CC2)c1O ; retrieve measured binding ratio, Fibrils.
Reply: 8.5

Query: Further, for COc1cc(/C=C/c2ccc(-c3ccc(C=O)cc3)s2)cc(CN2CCN(C)CCN(C)CC2)c1O ?
Reply: 3.0

* * *

# Target Or Test System: Aβ42 fibrils (Homo sapiens)
# Construct: 1 mg of commercial Aβ42 monomer powder (from GL biochem) was dissolved in 1; purchased GL biochem
# Experiment Description: Fluorescence saturation binding assay with Aβ42 fibrils
# Measurement Context: another trial, [Aβ42 fibrils] = 5 μM; PBS pH 7.4 (Fig. S5); read-out: Kd, Aβ42 fibrils, another trial
Readout Kind: pKd
In textbook form, pKd equals minus log to base ten of the concentration in mol/L.

Query: Look up pKd for this compound: CN1CCN(C)CCN(Cc2cc(/C=C/c3ccc(-c4ccc(N(C)C)cc4)s3)ccc2O)CC1 [ZY-5-MT]
Reply: 5.84

* * *

# Experiment Description: Log D by octanol-PBS partition assay
# Assay type: physicochemical
# Measurement Context: pH 7.4, fluorescence readout
The reader will find reported logD values listed item by item below.
Number only, no unit.

Reference set (3 entries):
Query: Param item = COc1cc(OC)cc(-c2ccc(/C=C/c3ccc(O)c(CN4CCN(C)CCN(C)CC4)c3)cc2)c1 [ZY-17-MT] ; retrieve measured logD.
Reply: 0.81

Query: Another compound to look at: COc1cc(/C=C/c2ccc(-c3ccc(C=O)cc3)s2)cc(CN2CCN(C)CCN(C)CC2)c1O [ZY-15-OMe]
Reply: 1.05

Query: Thanks! And CN1CCN(C)CCN(Cc2cc(/C=C/c3ccc(-c4ccc(N(C)C)cc4)s3)ccc2O)CC1 [ZY-5-MT] ?
Reply: 0.997

Query compound follows.
Query: I am curious: what logD value has been reported for COc1cc(OC)cc(-c2ccc(/C=C/c3cc(CN4CCN(C)CCN(C)CC4)c(O)c(CN4CCN(C)CCN(C)CC4)c3)cc2)c1 [ZY-17-DT] ?
Reply: 0.606

* * *

# Target Or Test System: Aβ42 oligomers (Homo sapiens)
# Construct: 1 mg of commercial Aβ42 monomer powder (from GL biochem) was dissolved in 1
# Sequence (P05067 672-713 limits assumed): as above
# Experiment Description: Fluorescence saturation binding assay with Aβ42 oligomers
# Measurement Context: Aβ42 oligomers; 10 mM PBS pH 7.4; one site-specific binding model
Readout Kind: Kd (µM)
Give just the number in µM; leave the unit off.

Would you please look over these solved cases?
Query: // Kd lookup, key: COc1cc(OC)cc(-c2ccc(/C=C/c3ccc(O)c(CN4CCN(C)CCN(C)CC4)c3)cc2)c1
Reply: 2.08

Query: CN1CCN(C)CCN(Cc2cc(/C=C/c3ccc(-c4ccc(N(C)C)cc4)s3)ccc2O)CC1 , same question.
Reply: 0.46

Query: Then CN1CCN(C)CCN(Cc2cc(/C=C/c3ccc(-c4ccc(C=O)cc4)s3)cc(CN3CCN(C)CCN(C)CC3)c2O)CC1 ?
Reply: 4.55

Query: Could you do the same for CN1CCN(C)CCN(Cc2cc(-c3ccc(/C=C/c4ccc(N(C)C)cc4)s3)ccc2O)CC1 , please?
Reply: 6.27

Query: # repeat for COc1cc(OC)cc(-c2ccc(/C=C/c3cc(CN4CCN(C)CCN(C)CC4)c(O)c(OC)c3)cc2)c1
Reply: 0.12

---
Query: Could you share which Kd value was measured for COc1cc(OC)cc(-c2ccc(/C=C/c3cc(CN4CCN(C)CCN(C)CC4)c(O)c(CN4CCN(C)CCN(C)CC4)c3)cc2)c1 ?
Reply: 1.03

Query: Also need CN1CCN(C)CCN(Cc2cc(/C=C/c3ccc(-c4ccc(N(C)C)cc4)s3)cc(CN3CCN(C)CCN(C)CC3)c2O)CC1 , thanks.
Reply: 2.09

Query: Repeat for the following compound: COc1cc(/C=C/c2ccc(-c3ccc(N(C)C)cc3)s2)cc(CN2CCN(C)CCN(C)CC2)c1O
Reply: 1.04

Query: Try this compound next: CN1CCN(C)CCN(Cc2cc(-c3ccc(/C=C/c4ccc(N(C)C)cc4)s3)cc(CN3CCN(C)CCN(C)CC3)c2O)CC1
Reply: 0.67

Query: Param item: COc1cc(/C=C/c2ccc(-c3ccc(C=O)cc3)s2)cc(CN2CCN(C)CCN(C)CC2)c1O
Reply: 0.47

Query: And what about the compound COc1cc(-c2ccc(/C=C/c3ccc(N(C)C)cc3)s2)cc(CN2CCN(C)CCN(C)CC2)c1O ?
Reply: 0.32

Query: Follow-up entry: CN1CCN(C)CCN(Cc2cc(/C=C/c3ccc(-c4ccc(C=O)cc4)s3)ccc2O)CC1
Reply: 2.03
